- Study system: recombinant human DAO (diamine oxidase) (Homo sapiens)
- Construct: purchased R&D systems
- Sequence (P19801 20-751): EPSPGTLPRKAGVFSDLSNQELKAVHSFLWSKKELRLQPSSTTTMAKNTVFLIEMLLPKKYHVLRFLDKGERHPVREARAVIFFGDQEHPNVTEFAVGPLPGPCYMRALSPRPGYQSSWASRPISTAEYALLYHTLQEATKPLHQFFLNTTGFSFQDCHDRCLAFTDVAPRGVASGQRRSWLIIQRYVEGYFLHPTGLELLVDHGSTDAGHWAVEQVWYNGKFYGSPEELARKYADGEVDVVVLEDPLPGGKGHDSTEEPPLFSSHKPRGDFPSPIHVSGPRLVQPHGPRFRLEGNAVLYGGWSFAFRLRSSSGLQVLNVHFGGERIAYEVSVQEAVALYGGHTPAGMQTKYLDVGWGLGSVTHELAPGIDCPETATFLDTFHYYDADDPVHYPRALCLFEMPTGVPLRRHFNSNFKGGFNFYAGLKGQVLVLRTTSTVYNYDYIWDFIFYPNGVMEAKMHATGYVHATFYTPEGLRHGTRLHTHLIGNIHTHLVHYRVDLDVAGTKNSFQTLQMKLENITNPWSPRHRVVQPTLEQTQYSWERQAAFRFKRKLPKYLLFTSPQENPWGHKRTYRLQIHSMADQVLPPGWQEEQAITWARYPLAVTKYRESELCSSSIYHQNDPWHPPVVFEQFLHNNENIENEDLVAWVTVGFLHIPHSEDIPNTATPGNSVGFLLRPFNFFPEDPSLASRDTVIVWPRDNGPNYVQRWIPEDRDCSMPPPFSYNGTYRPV
- Measurement notes: Activity evaluation on recombinant human DAO (Amplex Red/HRP-coupled assay, 1 mM putrescine substrate)
- Assay type: biochemical
- Assay setup: 1 mM putrescine, read-out: Inhibitory Activity (IC50, nM) DAO
Structures can show the parent of a compound that is named as a salt.
# IC50 listing for each entry below

| Compound | Value qualifier | IC50, nM |
| --- | --- | --- |
| NCC(Cn1ncn(Cc2ccc(-c3ccc4c(c3)OCO4)s2)c1=O)=C(F)F [Example 126, Trifluoroacetate] | > | 100000 |
| CS(=O)(=O)c1ccc(-c2cccc(-n3cnn(CC(CN)=C(F)F)c3=O)c2)cc1 [Example 17, Trifluoroacetate] | = | 1300 |
| NCC(Cn1ncn(Cc2ccc(-c3ccc4c(c3)NC(=O)OC4)s2)c1=O)=C(F)F [Example 142, Trifluoroacetate] | = | 16000 |
| CS(=O)(=O)c1ccc(-c2ccc(-n3cnn(CC(CN)=C(F)F)c3=O)c(F)c2)cc1 [Example 31, Trifluoroacetate] | = | 59 |
| NCC(Cn1ncn(Cc2ccc(Br)s2)c1=O)=C(F)F [Example 97, Trifluoroacetate] | > | 10000 |
| NCC(Cn1ncn(-c2ccc(Br)cc2F)c1=O)=C(F)F [Example 5, Trifluoroacetate] | = | 67000 |
| Cn1cc(C#Cc2ccc(Cn3cnn(CC(CN)=C(F)F)c3=O)s2)cn1 [Example 171, Trifluoroacetate] | > | 100000 |
